Test: Ichthyotoxicity against Oryzias latipes after 24 hrs
Type: organism-based
Conditions: in vivo, read-out: TLm
readout: LC50 at 24 h (µg/mL)
Output spec: scalar in µg/mL, unitless text.

query: Would you mind telling me what LC50 at 24 h value was observed for CCCCCCCCCCCCCC(=O)OCCC[C@@H]1/C(=C(/C)C=O)CC[C@](C)(O)[C@@]1(C)CC/C=C(\C)[C@H](O)C/C=C(\C)CCC=C(C)C ?
result: 3.5

query: Would you kindly share the measured LC50 at 24 h for CC(C)=CCC/C(C)=C/C[C@@H](O)/C(C)=C/CC[C@@]1(C)[C@H](CCCO)/C(=C(/C)C=O)CC[C@]1(C)O ?
result: 9.3

query: Give its LC50 at 24 h value. Item: C=C(/C=C/C=C(\C)CCC=C(C)C)[C@@H]1CC[C@]2([C@H](CCCO)/C(=C(/C)C=O)CC[C@]2(C)O)[C@@H]1O
result: 1.6

---

Entries and their LC50 at 24 h values follow.
Assay: Ichthyotoxicity against Oryzias latipes after 24 hrs
Assay type: organism-based
Settings: in vivo, read-out: TLm
Quick reminder: number only, in µg/mL, skip the unit.

compound="CC(C)=CCC/C(C)=C/C=C/C(C)=C/[C@@H]1C[C@@]2(C(O)O1)[C@H](CCCO)/C(=C(/C)C=O)CC[C@]2(C)O (stereo partly specified)" measured_value=5.5
compound="C=C1CC/C=C(\\C)C(=O)[C@H](O)[C@@H]2[C@@H]1CC2(C)C [BUDDLEDIN B]" measured_value=1.2
compound=CC(=O)OCCC[C@@H]1/C(=C(/C)C=O)CC[C@](C)(O)[C@@]1(C)CC/C=C(\C)[C@H](O)C/C=C(\C)CCC=C(C)C measured_value=0.8

query: Quick one: LC50 at 24 h for CC(C)=CCC/C(C)=C/C=C/C(C)=C/[C@H]1C[C@@]2(C(O)O1)[C@H](CCCO)/C(=C(/C)C=O)CC[C@]2(C)O (stereo partly specified) [BELACHINAL] ?
result: 2.8

---

Reported LC50 at 24 h values for the following molecules.
Experiment: Ichthyotoxicity against Oryzias latipes after 24 hrs
Format: organism-based
Settings: in vivo, read-out: TLm

Reference set, count: 2
molecule=CCCCCCCCCCCCCC(=O)OCCC[C@@H]1/C(=C(/C)C=O)CC[C@](C)(O)[C@@]1(C)CC/C=C(\C)[C@@H](C/C=C(\C)CCC=C(C)C)OC(C)=O readout="LC50 at 24 h" measured_value="> 10 µg/mL"
molecule="CC(C)=CCC/C(C)=C/C=C/C(C)=C/[C@@H]1C[C@@]23[C@H](OCCC[C@@H]2/C(=C(/C)C=O)CC[C@]3(C)O)O1 [ANHYDROBELACHINAL]" readout="LC50 at 24 h" measured_value="> 10 µg/mL"

Query molecule follows.
query: Returns the measured LC50 at 24 h for the input molecule. Input: CC(=O)OCCC[C@@H]1/C(=C(/C)C=O)CC[C@](C)(O)[C@@]1(C)CC/C=C(\C)[C@@H](C/C=C(\C)CCC=C(C)C)OC(C)=O
result: > 10 µg/mL
